Molecular target: human CB2 receptors (Homo sapiens, UniProt P34972)
Construct: expressed in transfected cells; membrane preparations
Sequence (P34972 whole entry): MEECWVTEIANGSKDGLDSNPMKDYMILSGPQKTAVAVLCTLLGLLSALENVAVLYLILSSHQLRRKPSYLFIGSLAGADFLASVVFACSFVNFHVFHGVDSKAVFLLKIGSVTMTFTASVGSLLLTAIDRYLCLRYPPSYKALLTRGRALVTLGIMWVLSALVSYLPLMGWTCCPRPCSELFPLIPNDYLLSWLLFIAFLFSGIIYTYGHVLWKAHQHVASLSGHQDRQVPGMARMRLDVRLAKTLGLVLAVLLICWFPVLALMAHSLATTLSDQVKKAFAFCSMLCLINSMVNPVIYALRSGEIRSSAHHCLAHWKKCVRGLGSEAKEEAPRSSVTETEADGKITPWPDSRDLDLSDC
Experiment: Affinity for human CB2 cannabinoid receptors: inhibition of [3H]-CP55940 binding to transfected CHO-K1 cell membranes
Details: inhibition constant value range, [3H]-CP55940 1 nM, Cheng-Prusoff, read-out: Ki < 5 μM
pKi: −log10 of the molar value.

{"COMPOUND": "Cc1ccccc1-c1ccc(-c2nc3c(C)c(C)sc3c(=O)n2CCN2CCCCC2)cc1", "pKi": "> 5.30"}
{"COMPOUND": "CC1CCN(CCn2c(-c3ccc(-c4ccccc4)cc3)nc3ccsc3c2=O)CC1", "pKi": "> 5.30"}
{"COMPOUND": "O=c1c2sccc2nc(-c2ccc(-c3ccccc3C(F)(F)F)cc2)n1CCN1CCCCC1", "pKi": "> 5.30"}
{"COMPOUND": "O=c1c2sccc2nc(-c2ccc(-c3ccccc3)cc2)n1CCC1C[C@H]2CC[C@@H]1C2 (stereo partly shown)", "pKi": "> 5.30"}

Attribution: patent US20090325933A1
